These data points were gathered from patent US20120245137A1.

# CAv3.2 IC50 Ratio closed/inact. annotations
- EXPERIMENTAL SYSTEM: T-type calcium channel (Homo sapiens, UniProt O95180)
- Sequence (O95180 whole entry): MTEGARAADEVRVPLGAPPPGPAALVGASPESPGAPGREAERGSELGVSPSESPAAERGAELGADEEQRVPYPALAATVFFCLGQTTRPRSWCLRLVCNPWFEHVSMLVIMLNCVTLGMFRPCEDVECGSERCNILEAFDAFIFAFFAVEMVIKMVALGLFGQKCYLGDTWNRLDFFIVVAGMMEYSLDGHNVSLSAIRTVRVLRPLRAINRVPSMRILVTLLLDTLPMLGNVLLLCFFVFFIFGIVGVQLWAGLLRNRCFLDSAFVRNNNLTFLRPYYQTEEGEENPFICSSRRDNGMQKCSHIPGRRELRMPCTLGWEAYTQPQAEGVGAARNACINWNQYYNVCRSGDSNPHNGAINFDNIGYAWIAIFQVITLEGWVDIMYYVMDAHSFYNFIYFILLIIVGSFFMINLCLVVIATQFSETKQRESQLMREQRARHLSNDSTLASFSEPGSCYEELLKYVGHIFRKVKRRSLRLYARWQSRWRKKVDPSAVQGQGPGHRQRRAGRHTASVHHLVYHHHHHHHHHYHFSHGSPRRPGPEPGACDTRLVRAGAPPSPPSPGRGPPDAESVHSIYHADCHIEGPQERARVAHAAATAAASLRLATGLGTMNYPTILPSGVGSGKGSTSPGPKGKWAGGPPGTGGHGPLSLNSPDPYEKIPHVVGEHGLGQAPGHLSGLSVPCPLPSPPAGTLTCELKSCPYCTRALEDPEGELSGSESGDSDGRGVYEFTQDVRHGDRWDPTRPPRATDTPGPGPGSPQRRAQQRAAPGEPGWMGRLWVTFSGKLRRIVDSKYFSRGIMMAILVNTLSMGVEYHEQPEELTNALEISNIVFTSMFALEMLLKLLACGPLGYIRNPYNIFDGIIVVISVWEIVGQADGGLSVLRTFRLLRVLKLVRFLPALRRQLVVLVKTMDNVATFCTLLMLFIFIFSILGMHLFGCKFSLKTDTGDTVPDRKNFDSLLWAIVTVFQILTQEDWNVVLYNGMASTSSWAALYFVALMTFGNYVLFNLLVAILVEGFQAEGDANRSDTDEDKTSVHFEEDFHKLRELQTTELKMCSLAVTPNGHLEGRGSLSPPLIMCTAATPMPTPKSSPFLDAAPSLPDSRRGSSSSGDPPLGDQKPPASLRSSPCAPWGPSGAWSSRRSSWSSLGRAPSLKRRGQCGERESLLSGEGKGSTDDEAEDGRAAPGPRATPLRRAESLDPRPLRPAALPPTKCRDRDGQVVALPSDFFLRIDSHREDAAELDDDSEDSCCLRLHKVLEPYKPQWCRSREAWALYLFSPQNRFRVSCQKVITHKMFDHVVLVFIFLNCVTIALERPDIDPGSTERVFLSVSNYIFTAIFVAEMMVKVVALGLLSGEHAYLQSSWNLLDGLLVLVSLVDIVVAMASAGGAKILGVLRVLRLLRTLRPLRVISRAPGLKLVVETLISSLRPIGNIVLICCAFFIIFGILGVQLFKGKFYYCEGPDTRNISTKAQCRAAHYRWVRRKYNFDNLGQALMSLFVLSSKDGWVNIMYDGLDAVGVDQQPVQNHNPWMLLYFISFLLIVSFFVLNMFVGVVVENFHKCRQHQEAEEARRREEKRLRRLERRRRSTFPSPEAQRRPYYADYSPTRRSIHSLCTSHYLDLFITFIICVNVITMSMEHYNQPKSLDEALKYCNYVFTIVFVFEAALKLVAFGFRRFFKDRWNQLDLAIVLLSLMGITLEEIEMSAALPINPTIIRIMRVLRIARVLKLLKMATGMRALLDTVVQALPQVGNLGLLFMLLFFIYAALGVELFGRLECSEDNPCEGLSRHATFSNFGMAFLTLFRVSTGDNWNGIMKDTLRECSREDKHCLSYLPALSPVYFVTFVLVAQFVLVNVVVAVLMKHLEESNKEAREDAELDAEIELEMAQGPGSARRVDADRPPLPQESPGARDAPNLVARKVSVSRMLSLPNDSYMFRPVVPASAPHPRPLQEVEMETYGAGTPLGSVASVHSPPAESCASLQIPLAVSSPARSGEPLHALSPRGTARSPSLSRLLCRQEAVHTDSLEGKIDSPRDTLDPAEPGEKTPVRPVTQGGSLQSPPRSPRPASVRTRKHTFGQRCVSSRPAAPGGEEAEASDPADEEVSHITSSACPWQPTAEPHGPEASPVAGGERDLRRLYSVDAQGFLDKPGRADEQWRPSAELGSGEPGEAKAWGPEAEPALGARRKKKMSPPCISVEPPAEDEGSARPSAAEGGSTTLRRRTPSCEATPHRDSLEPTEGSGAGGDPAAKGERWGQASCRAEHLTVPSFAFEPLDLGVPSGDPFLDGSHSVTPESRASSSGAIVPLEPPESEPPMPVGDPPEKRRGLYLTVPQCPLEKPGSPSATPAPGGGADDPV
- EXPERIMENTAL PROTOCOL: T-type channel blocking, FLIPR data (Table 6)
- Type: cell-based
- MEASUREMENT CONDITIONS: CAv3.2, ratio closed/inact.
QUANTITY MEASURED: CAv3.2 IC50 Ratio closed/inact.

compound="CC(C)(C[C@H]1C[C@@H](NC(=O)[C@H]2CCCC[C@@H]2N)C1)S(=O)(=O)c1cccc(C(F)(F)F)c1 [Compound 745]" quantity_measured="CAv3.2 IC50 Ratio closed/inact." test_result=1
compound="CC(C)([C@H]1C[C@H](C(=O)Nc2ccc(C(F)(F)F)nc2)C1)S(=O)(=O)c1cccc(C(F)(F)F)c1 [Compound 760]" quantity_measured="CAv3.2 IC50 Ratio closed/inact." test_result=6.3
compound="O=C(c1ccc(OCC(F)(F)F)nc1)N1CC(CS(=O)(=O)c2cc(F)cc(C(F)(F)F)c2)C1 [Compound 747]" quantity_measured="CAv3.2 IC50 Ratio closed/inact." test_result=1.8
compound="CC(C)([C@H]1C[C@H](C(=O)Nc2ccc(Cl)cn2)C1)S(=O)(=O)c1cccc(C(F)(F)F)c1 [Compound 761]" quantity_measured="CAv3.2 IC50 Ratio closed/inact." test_result=5.8

====

- EXPERIMENTAL SYSTEM: human α1G T-type channels (Homo sapiens)
- Sequence (O43497 whole entry): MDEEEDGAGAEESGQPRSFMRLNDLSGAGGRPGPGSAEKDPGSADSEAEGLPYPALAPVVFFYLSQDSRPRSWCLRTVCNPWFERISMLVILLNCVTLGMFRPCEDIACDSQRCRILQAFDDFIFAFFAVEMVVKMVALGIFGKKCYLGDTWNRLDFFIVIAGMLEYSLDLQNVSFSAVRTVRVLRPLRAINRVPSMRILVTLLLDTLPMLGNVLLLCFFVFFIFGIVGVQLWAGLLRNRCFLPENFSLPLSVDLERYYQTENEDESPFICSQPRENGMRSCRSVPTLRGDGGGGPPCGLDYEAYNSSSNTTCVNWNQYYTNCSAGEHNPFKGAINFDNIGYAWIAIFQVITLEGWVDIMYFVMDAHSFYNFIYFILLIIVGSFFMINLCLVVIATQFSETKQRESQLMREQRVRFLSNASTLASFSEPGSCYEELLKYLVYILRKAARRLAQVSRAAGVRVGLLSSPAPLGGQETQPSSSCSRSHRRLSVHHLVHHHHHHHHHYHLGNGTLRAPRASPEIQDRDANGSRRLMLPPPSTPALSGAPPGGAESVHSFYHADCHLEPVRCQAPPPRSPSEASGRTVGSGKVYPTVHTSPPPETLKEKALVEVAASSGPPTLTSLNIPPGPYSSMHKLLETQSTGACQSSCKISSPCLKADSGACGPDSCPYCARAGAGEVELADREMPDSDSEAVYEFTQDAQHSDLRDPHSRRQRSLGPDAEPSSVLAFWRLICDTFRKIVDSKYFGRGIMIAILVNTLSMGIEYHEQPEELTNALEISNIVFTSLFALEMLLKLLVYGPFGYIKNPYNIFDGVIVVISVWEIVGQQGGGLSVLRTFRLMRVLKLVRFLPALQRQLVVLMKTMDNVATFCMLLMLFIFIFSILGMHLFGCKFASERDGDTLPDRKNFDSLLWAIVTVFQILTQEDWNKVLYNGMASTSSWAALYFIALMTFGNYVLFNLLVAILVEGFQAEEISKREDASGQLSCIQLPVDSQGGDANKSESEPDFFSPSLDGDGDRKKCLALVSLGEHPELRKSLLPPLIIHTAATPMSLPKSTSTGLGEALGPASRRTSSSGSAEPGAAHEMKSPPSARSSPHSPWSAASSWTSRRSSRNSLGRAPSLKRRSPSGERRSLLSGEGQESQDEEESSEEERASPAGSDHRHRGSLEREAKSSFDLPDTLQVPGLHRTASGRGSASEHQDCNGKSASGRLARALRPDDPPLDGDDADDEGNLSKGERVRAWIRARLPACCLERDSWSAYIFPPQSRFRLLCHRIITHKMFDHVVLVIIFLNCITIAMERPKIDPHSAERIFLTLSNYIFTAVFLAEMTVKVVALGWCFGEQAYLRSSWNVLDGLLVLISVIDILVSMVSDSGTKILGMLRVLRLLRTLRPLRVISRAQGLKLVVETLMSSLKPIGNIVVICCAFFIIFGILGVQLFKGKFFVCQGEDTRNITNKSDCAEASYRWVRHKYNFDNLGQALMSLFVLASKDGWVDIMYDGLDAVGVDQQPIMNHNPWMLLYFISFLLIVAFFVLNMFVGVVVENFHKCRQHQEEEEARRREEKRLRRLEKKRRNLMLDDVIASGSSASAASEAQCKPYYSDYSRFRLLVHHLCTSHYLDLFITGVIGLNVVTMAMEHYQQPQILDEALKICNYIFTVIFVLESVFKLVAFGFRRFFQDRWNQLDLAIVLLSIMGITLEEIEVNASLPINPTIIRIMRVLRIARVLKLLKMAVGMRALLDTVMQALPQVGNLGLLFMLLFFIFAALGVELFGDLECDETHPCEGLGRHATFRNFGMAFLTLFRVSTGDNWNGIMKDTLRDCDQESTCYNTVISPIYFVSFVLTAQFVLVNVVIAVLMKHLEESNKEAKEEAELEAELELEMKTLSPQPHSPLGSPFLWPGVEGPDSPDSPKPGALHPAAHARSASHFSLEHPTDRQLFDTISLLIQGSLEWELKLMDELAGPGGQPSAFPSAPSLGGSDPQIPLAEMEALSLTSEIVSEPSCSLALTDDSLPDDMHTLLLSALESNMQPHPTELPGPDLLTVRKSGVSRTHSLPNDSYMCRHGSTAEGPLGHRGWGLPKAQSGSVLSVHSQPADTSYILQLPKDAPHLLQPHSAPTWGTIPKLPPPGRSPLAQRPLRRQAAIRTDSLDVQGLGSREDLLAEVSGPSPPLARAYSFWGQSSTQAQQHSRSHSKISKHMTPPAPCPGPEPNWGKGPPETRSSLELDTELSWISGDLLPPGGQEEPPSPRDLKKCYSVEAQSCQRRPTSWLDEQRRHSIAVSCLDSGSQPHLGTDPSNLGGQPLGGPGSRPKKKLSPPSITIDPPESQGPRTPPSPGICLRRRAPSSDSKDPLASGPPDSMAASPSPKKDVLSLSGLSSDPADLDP
- EXPERIMENTAL PROTOCOL: T-type calcium channel block, whole cell patch clamp, α1G
- MEASUREMENT CONDITIONS: HEK cells stably expressing human α1G; mainly non-inactivated protocol; values above 10,000 nM represented as 10000
QUANTITY MEASURED: IC50 (µM)

compound="COc1cc(F)cc(C(=O)NC2CCC(C)(S(=O)(=O)c3cccc(C(F)(F)F)c3)CC2)c1 (centres unmarked) [Compound 20]" rel== test_result=1.97
compound="O=C(N[C@H]1CC[C@H](S(=O)(=O)c2cccc(C(F)(F)F)c2)CC1)c1ccc(F)c(C(F)(F)F)c1 [Compound 58]" rel== test_result=1.85
compound="CC(C)(C)CC(=O)N[C@H]1CC[C@@](F)(S(=O)(=O)c2cccc(C(F)(F)F)c2)CC1 [Compound 278]" rel== test_result=2.48
compound="CC(C)(C)C(=O)Nc1ccncc1C(=O)NCC(C)(C)S(=O)(=O)c1cccc(C(F)(F)F)c1 [Compound 477]" rel== test_result=0.54
compound="O=C(NC[C@H]1C[C@H](S(=O)(=O)c2cccc(C(F)(F)F)c2)C1)c1ccnc(C(F)(F)F)c1 [Compound 361]" rel== test_result=1.62
compound="CS(=O)(=O)c1cc(Cl)ccc1C(=O)N[C@H]1CC[C@@](F)(S(=O)(=O)c2cccc(C(F)(F)F)c2)CC1 [Compound 262]" rel== test_result=2.89
compound="O=C(N[C@H]1CC[C@@](F)(S(=O)(=O)c2cccc(C(F)(F)F)c2)CC1)[C@@H]1C[C@@H](c2ccccc2)CN1 [Compound 285]" rel=> test_result=10
compound="CC(C)S(=O)(=O)c1cc(C(F)(F)F)cnc1C(=O)N[C@H]1CC[C@@H](S(=O)(=O)c2cccc(C(F)(F)F)c2)CC1 [Compound 339]" rel== test_result=5.27
compound="O=C(N[C@H]1C[C@H](CS(=O)(=O)c2cccc(C(F)(F)F)c2)C1)c1ccc(F)c(Cl)c1 [Compound 348]" rel== test_result=4.52
compound="COc1cc(C(=O)NCC2(C)CCC(S(=O)(=O)c3cccc(C(F)(F)F)c3)CC2)cc(Cl)n1 (centres unmarked) [Compound 210]" rel== test_result=4.95
compound="CC(C)(CCS(=O)(=O)c1ccc(Cl)cc1)S(=O)(=O)c1cccc(C(F)(F)F)c1 [Compound 462]" rel== test_result=0.56
compound="O=C(N[C@H]1CC[C@@](F)(S(=O)(=O)c2cccc(C(F)(F)F)c2)CC1)c1cn2cc(C(F)(F)F)ccc2n1 [Compound 264]" rel== test_result=4.48
compound="O=C(N[C@H]1C[C@H](CS(=O)(=O)c2cccc(C(F)(F)F)c2)C1)c1ccc(C(F)(F)F)cn1 [Compound 347]" rel== test_result=2.37
compound="O=C(NC[C@]1(O)CC[C@@H](S(=O)(=O)c2cccc(C(F)(F)F)c2)CC1)c1cc(F)cc(Cl)c1 [Compound 228]" rel== test_result=0.33
